Can you tell me GFP response vs DMSO for the items I'm about to list?
Assay: TOR pathway LAP4-GFP level changes – S. cerevisiae, multiplex flow cytometry, primary screen (AID 1873)
Details: S. cerevisiae LAP4-GFP expression, 3 h, at 10 µM, stronger effect = higher value
Inconclusive results are not listed.
Give a bare numeral; the unit % is implied.

Prompt: Endpoint output: GFP response vs DMSO of `COc1ccc(C(=O)CCN2CCc3cc(OC)c(OC)cc3C2)cc1` . Value?
Response: 70.3

Prompt: Endpoint output: GFP response vs DMSO of `O=C(NCCc1ccccc1)C1CCN(C2CCN(Cc3ccco3)CC2)CC1` . Value?
Response: 118

Prompt: Endpoint output: GFP response vs DMSO of `CC(=O)[C@H]1[C@H](C#N)C[C@H]2[C@@H]3CC=C4C[C@@H](O)CC[C@]4(C)[C@H]3CC[C@@]21C` . Value?
Response: 85.8

Prompt: Endpoint output: GFP response vs DMSO of CCCCCCCC(=O)OCC(O)CO (stereo unspecified) . Value?
Response: 92.7

Prompt: Endpoint output: GFP response vs DMSO of `COc1ccc(C(=O)NCc2cccnc2)cc1` . Value?
Response: 85.4

Prompt: Endpoint output: GFP response vs DMSO of COc1cccc(CN2C(=O)N(C(C)C)C(N(O)C(=O)NC(C)C)C2(C)C)c1OC (stereo unspecified) . Value?
Response: 97.3

Prompt: Endpoint output: GFP response vs DMSO of `Cc1cccc(C(=O)c2cccc(C)c2)c1` . Value?
Response: 105

Prompt: Endpoint output: GFP response vs DMSO of COC(=O)C1=C(C)NC(C)=C(C(=O)OCCN(C)Cc2ccccc2)C1c1cccc([N+](=O)[O-])c1 (stereo unspecified) . Value?
Response: 100

Prompt: Endpoint output: GFP response vs DMSO of `C[N+](C)(C)CCCCCCCCCC[N+](C)(C)C` . Value?
Response: 77

Prompt: Endpoint output: GFP response vs DMSO of CCN(CCCCOC(=O)c1ccc(OC)c(OC)c1)C(C)Cc1ccc(OC)cc1 (stereo unspecified) . Value?
Response: 104

Prompt: Endpoint output: GFP response vs DMSO of `C[C@H](NC(=O)C1(c2ccccc2)CCN(C(=O)[C@H]2CSCN2C(=O)OC(C)(C)C)CC1)C(=O)O` . Value?
Response: 110

Prompt: Endpoint output: GFP response vs DMSO of `CC(=O)OCC#CCSc1nc2ccccc2n1C` . Value?
Response: 103

Prompt: Endpoint output: GFP response vs DMSO of CC[C@]1(O)CC2CN(CCc3c([nH]c4ccccc34)[C@@](C(=O)OC)(c3cc4c(cc3OC)N(C=O)[C@H]3[C@@](O)(C(=O)OC)[C@H](OC(C)=O)[C@]5(CC)C=CCN6CC[C@]43[C@@H]65)C2)C1 (stereo partly specified) . Value?
Response: 94

Prompt: Endpoint output: GFP response vs DMSO of COc1ccc(C2OC[C@H]3O[C@H](O)[C@H](NC(C)=O)[C@@H](O)[C@@H]3O2)cc1 (stereo partly specified) . Value?
Response: 95.9

Prompt: Endpoint output: GFP response vs DMSO of `COc1ccc(O)c(C2=Nc3ccccc3N=C(c3ccccc3)C2)c1` . Value?
Response: 71.5

Prompt: Endpoint output: GFP response vs DMSO of `COc1ccc2[nH]c(=O)c3c(c2c1)OC(C)(C)C=C3` . Value?
Response: 119

Prompt: Endpoint output: GFP response vs DMSO of `O=C(CNC(=O)OCc1ccccc1)Oc1cc2oc(=O)cc(-c3ccccc3)c2cc1Cl` . Value?
Response: 107

Prompt: Endpoint output: GFP response vs DMSO of Cc1nc(C2CC(=O)OC23CCCCC3)cs1 (stereo unspecified) . Value?
Response: 116

Prompt: Endpoint output: GFP response vs DMSO of `Cn1c(=O)[nH]c(=O)c2c1nc(NCc1ccco1)n2CCCc1ccccc1` . Value?
Response: 90.1

Prompt: Endpoint output: GFP response vs DMSO of `CCC(=O)c1ccc(OCc2ccc(C(=O)OC)cc2)cc1` . Value?
Response: 112

Prompt: Endpoint output: GFP response vs DMSO of `CC(=O)N1CCN(c2ccc(NC(=O)/C=C/c3ccccc3)cc2)CC1` . Value?
Response: 100

Prompt: Endpoint output: GFP response vs DMSO of `C[C@H](CCC(=O)O)[C@H]1CC[C@H]2[C@@H]3C(=O)C[C@@H]4CC(=O)CC[C@]4(C)[C@H]3CC(=O)[C@]12C` . Value?
Response: 120

Prompt: Endpoint output: GFP response vs DMSO of `Cc1c(Cc2ccccc2)c(=O)oc2c(CN(C)C)c(O)c(Cl)cc12` . Value?
Response: 92.7

Prompt: Endpoint output: GFP response vs DMSO of `COc1cc(-c2nnc(-c3cccs3)o2)cc(OC)c1OC` . Value?
Response: 103

Prompt: Endpoint output: GFP response vs DMSO of `CC(=O)OCC(=O)[C@@]1(O)[C@H](C)C[C@H]2[C@@H]3CCC4=CC(=O)C=C[C@]4(C)[C@@]3(F)[C@@H](O)C[C@@]21C` . Value?
Response: 80.9

Prompt: Endpoint output: GFP response vs DMSO of `Cc1ccc(C2=NOC(=O)/C2=C\C=C\c2ccccc2)cc1` . Value?
Response: 139

Prompt: Endpoint output: GFP response vs DMSO of CCn1cc(CN2N=C(C)CC2c2ccccc2)c(C)n1 (stereo unspecified) . Value?
Response: 116

Prompt: Endpoint output: GFP response vs DMSO of CC(=O)N(CCC(Cc1ccccc1)c1ccco1)Cc1ccco1 (stereo unspecified) . Value?
Response: 77.6

Prompt: Endpoint output: GFP response vs DMSO of `CSc1ccc(/C=N/N2CCN(Cc3ccc(C)cc3C)CC2)cc1` . Value?
Response: 97

Prompt: Endpoint output: GFP response vs DMSO of `CC/C(=C(\c1ccc(O)cc1)c1ccc(OCCN(C)C)cc1)c1ccccc1` . Value?
Response: 99.1

Prompt: Endpoint output: GFP response vs DMSO of NS(=O)(=O)c1cc2c(cc1C(F)(F)F)NC(Cc1ccccc1)NS2(=O)=O (stereo unspecified) . Value?
Response: 82.5

Prompt: Endpoint output: GFP response vs DMSO of `CC1(C)Cc2nc3sc4c(=O)n(CC(N)=O)cnc4c3cc2CO1` . Value?
Response: 73.2

Prompt: Endpoint output: GFP response vs DMSO of `O=S(=O)(CCc1nc2ccccc2[nH]1)c1ccc(Cl)cc1` . Value?
Response: 124

Prompt: Endpoint output: GFP response vs DMSO of COc1ccc(OC(C)C(=O)Nc2ccc([N+](=O)[O-])cc2)cc1 (stereo unspecified) . Value?
Response: 114

Prompt: Endpoint output: GFP response vs DMSO of `O=C(NCCO)c1ccc2[nH]c3ccccc3c2c1` . Value?
Response: 101

Prompt: Endpoint output: GFP response vs DMSO of `CC(=O)[C@@]1(O)CC[C@H]2[C@@H]3CCC4=CC(=O)CC[C@]4(C)[C@H]3[C@@H](O)C[C@@]21C` . Value?
Response: 90.3

Prompt: Endpoint output: GFP response vs DMSO of `O=c1cc(CN2CCN(c3cccc(Cl)c3)CC2)c2cc(O)c(-c3ccccc3)cc2o1` . Value?
Response: 83.1

Prompt: Endpoint output: GFP response vs DMSO of `COc1cc(CNCCc2ccccc2F)ccc1OCC(=O)N1CCCCC1` . Value?
Response: 114

Prompt: Endpoint output: GFP response vs DMSO of `CCOC(=O)C1=C[C@]2(CC)CCCN3CCc4c(n1c1ccccc41)[C@@H]32` . Value?
Response: 104

Prompt: Endpoint output: GFP response vs DMSO of `NC(=O)[C@@H]1[C@@H]2C(=O)N(c3ccc(F)cc3)C(=O)[C@@H]2[C@H]2C=Cc3ccccc3N21` . Value?
Response: 100

Prompt: Endpoint output: GFP response vs DMSO of O=C(O)C1[C@H]2C(=O)N(C3CCCC3)C[C@]23C=C[C@H]1O3 (stereo partly specified) . Value?
Response: 121

----------
Assay: yeast TOR pathway reporter LAP4-GFP change – cell-based, cherry picks, flow cytometry, mother/daughter gates, confirmation (AID 2271);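 also: ratio of sample to DMSO plate mean so 100% equals DMSO level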
Conditions: S. cerevisiae LAP4-GFP strain, 3 h, measured here: daughter cell gate response, at 10 µM, stronger effect = higher value, 100 means same as DMSO control
Can you tell me GFP response relative to DMSO for the items I'm about to list?
Give a bare numeral; the unit % is implied.

Prompt: Endpoint output: GFP response relative to DMSO of `CC(C)CC(=O)Nc1ccc2oc(-c3ccncc3)nc2c1` . Value?
Response: 98.7

Prompt: Endpoint output: GFP response relative to DMSO of `Nc1[nH]c(=O)ncc1F` . Value?
Response: 95

Prompt: Endpoint output: GFP response relative to DMSO of `N=c1nc(N2CCCCC2)cc(N)n1O` . Value?
Response: 101

Prompt: Endpoint output: GFP response relative to DMSO of `COc1ccc(C2=CC(=O)C=CC2=O)cc1` . Value?
Response: 120

Prompt: Endpoint output: GFP response relative to DMSO of `Cc1ccc2[nH]c3c(c2c1)CCNC3=O` . Value?
Response: 92.5

Prompt: Endpoint output: GFP response relative to DMSO of `CN(C)CCN(Cc1ccccc1)c1ccccn1` . Value?
Response: 99.2
